# study system: VP1 capsid protein on BKV pseudovirions of genotype II (GBR-12; AB263920) (BK virus genotype II (GBR-12))
# assay protocol: cell-based or functional assay
I'd appreciate it if you could label each record using Neutralization PSV IC50 and these ranges: low value = under 0.004 µg/mL, medium value = from 0.004 µg/mL up to 1 µg/mL, high value = 1 µg/mL and over

antibody D11P7 (antibody, V domains shown) VH: EVQLVESGGGLVQPGGSLRLSCAASGFTFRSYTMDWVRQAPGKGLEWVSCISGSSNHKYYADSVRGRFTISRDNAKNSLFLQMNSLRAEDSAVYYCAREDDILTPLYGMDVWGPGTTVTVSS VL: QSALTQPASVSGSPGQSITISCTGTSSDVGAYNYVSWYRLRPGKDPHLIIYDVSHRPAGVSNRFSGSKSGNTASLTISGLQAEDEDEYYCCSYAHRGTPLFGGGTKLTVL | medium value
antibody B9P6 (antibody, V domains shown) VH: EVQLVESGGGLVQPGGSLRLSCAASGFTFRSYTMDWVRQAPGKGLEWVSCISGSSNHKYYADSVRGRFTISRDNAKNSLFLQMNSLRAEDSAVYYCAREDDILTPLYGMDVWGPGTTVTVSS VL: EIVLTQSPDTLSLSPGARATLSCRASQSVRSNYLAWYQQKPGQAPRLLIYGASSRATAIPDRFSGSGSGTDFTLTITRLEPEDFAVYYCHQYGSSPRTFGQGTKVEIK | low value
antibody B3P3 (antibody, V domains shown) VH: EVQLVESGGGVVQPGRSLRLSCVTSGFTFESYGIHWVRQAPGKGLEWVAVISNDGSIEDYAGSVKGRFTISGDKAKNTVYLQVNSLRPDDTAVYYCAKDAVGITGGSLYYSYGMDVWGQGTTVTVSS VL: DIQMTQSPSPLSAFIGGRVTITCRASQTIKNYLNWYQQKPGEAPKLLIYTASTLQNGVPSRFSGSRSGTDFTLTITSLQPEDFATYYCQQSYSAPYSFGQGTKLEIK | high value
antibody B7P3 (antibody, V domains shown) VH: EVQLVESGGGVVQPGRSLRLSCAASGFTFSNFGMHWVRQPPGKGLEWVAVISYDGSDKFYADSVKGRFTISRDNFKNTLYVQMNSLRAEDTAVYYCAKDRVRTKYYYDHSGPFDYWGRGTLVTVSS VL: SYVLTQPPSVSVAPGQTARIACGGNNIGSKSVHWYQQRPGQAPVLVVYDDDDRPSGIPERFSGSNSGNTATLTISRVEAGDEADYFCQVWMTNSDRPVFGGGTKLTVL | high value
antibody F3P7 (antibody, V domains shown) VH: QVQLVQSGAEVKKPGASVKVSCKVSGYTFTSYSMHWLRQAPGQRLEWMGWINAGNGDTKYSQKFQGRITISRDTSARTTYMELSSLRSEDTAVFYCARSNSPTVTYNYYYYAMDVWGQGTTVTVSS VL: EIVLTQSPGTLSLSPGERATLSCRASQSVRSSYLAWYQQQAGQAPRLLIYDASSRATGIPDRFSGSGSGTDFSLTISRLDPEDFAVYYCQQYGNSPLTFGGGTKVEIK | medium value
antibody E10P2 (antibody, V domains shown) VH: EVQLLESGGALVQPGGSLRLSCAASGFTFRSYAMNWVRQAPGKGLEWVSSLSSSGTTTYYADSVKGRFTISRDNSKNTMYLQMDSLRGEDTAVYYCAKDRNAQWLGSEPLDPWGQGTLVTVSS VL: EIVLTQSPGTLSLSPGERATLSCRASQSVSSSYLAWYQQKPGQAPRLLIYGASSRATGIPDRFSGSGSGTDFTLTISSLQPDDFAIYYCQQAYTFPWTFGQGTKLEIK | high value
antibody B7P6 (antibody, V domains shown) VH: EVQLVQSGAELKKPGESLKISCKGSGFTFTNYWIAWVRQMPGKGLEWMGIIYPDDSDARYSPSFEGQVTISVDKSISTAYLQWSSLKASDTAIYYCARGGFCSGSVCYNPAWFDLWGQGTLVTVSS VL: DIQMTQSPSSLSASVGDRVTITCRASQTINTYLNWYLQKPGKAPKLLISDASSLETGVPSRFSGSGSGTDFTLTISSLQPDDFATYYCQQSYSTPLTFGGGTKVEIK | medium value
antibody G5P1 (antibody, V domains shown) VH: QVQLQESGPGLVKPSGTLSLTCTVSGGSIRNSYWSWIRQPPGKGLEWIGYIYYTGTTNSNPSLKSRVTISVHMSRNQISLKLNSVTPADTAVYYCAQGGGSGDLHYWGQGTLVTVSS VL: NFMLTQPASVSGSPGQSITISCTGTRSDVGGYNYVSWYQQHPGKAPKLMIYDISSRPSGVSNRFSASKSGNTASLTISGLQAEDEADYYCISFATGYTWVFGGGTRLTVL | low value
